# assay: DRUGMATRIX: Sigma2 radioligand binding (ligand: [3H] Ifenprodil)
# Type: cell membranes, Rattus norvegicus, Wistar, Brain, Membrane
# condition_notes: Not Active = under 50% inhibition at 10 µM
property_label: IC50

Guide cases for IC50, answers given:
O=c1[nH]c(=O)n([C@H]2C[C@H](O)[C@@H](CO)O2)cc1I :: Not Active
CCOc1ccc(NC(C)=O)cc1 :: Not Active
C[C@H](CS)C(=O)N1CCC[C@H]1C(=O)O :: Not Active
Nc1nc(N)nc(-c2cc(Cl)ccc2Cl)n1.O=C(O)/C=C\C(=O)O [IRSOGLADINE MALEATE] :: Not Active

Here's the next entry for you.
Requested read-out: IC50. Entry: Nc1nc2nc[nH]c2c(=S)[nH]1
Not Active

* * *

# assay: DRUGMATRIX: Atrial Natriuretic Factor (ANF) radioligand binding (ligand: [125I] ANF (rat))
# Type: cell membranes, Cavia porcellus, Dunkin-Hartley, Adrenal gland, Membrane
# condition_notes: Not Active = under 50% inhibition at 10 µM
property_label: IC50

Guide cases for IC50, answers given:
N=C(N)NCCN1CCCCCCC1 [GUANETHIDINE] :: Not Active
Cc1c(O)c(=O)ccn1C [DEFERIPRONE] :: Not Active
CCOC(=O)N1CCC(=C2c3ccc(Cl)cc3CCc3cccnc32)CC1 [LORATADINE] :: Not Active
Cc1c(C)c2c(c(C)c1O)CCC(C)(COc1ccc(CC3SC(=O)NC3=O)cc1)O2 (stereo not given) [TROGLITAZONE] :: Not Active

Requested read-out: IC50. Entry: COc1ccc(C[C@H]2NC[C@H](O)[C@H]2OC(C)=O)cc1 [ANISOMYCIN]
Not Active

* * *

# target_entity: Beta-3 adrenergic receptor (Homo sapiens)
# Sequence (P13945 whole entry): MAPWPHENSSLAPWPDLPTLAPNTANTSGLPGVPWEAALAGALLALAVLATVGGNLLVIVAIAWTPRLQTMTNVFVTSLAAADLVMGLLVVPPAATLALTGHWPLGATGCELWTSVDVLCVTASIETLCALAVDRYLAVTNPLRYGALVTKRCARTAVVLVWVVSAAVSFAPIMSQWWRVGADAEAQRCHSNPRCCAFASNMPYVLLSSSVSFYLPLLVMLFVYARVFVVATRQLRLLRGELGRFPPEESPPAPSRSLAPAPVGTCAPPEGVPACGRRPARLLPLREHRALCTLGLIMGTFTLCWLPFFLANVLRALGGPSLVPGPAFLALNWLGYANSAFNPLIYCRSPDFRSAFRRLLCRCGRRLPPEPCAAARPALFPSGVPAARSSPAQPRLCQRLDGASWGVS
# assay: DRUGMATRIX: Adrenergic beta3 radioligand binding (ligand: [125I] Cyanopindolol)
# Assay type: cell membranes, HEK293, Membrane
# condition_notes: hek293; Not Active = under 50% inhibition at 10 µM
property_label: IC50

C[C@]12CCC(=O)C=C1CC[C@@H]1[C@@H]2CC[C@@]2(C)[C@H]1CC[C@]2(C)O [METHYLTESTOSTERONE] :: Not Active
COc1c(C)c2c(c(O)c1C/C=C(\C)CCC(=O)O)C(=O)OC2 [MYCOPHENOLIC ACID] :: Not Active
C[C@H]1c2cccc(O)c2C(=O)C2=C(O)[C@]3(O)C(=O)C(C(N)=O)=C(O)[C@@H](N(C)C)[C@@H]3[C@@H](O)[C@@H]21.O [DOXYCYCLINE] :: Not Active

* * *

# target_entity: Alpha-1A adrenergic receptor (Rattus norvegicus)
# assay: DRUGMATRIX: Alpha-1A adrenergic receptor radioligand binding (ligand: prazosin)
# Type: cell membranes, Wistar, Submaxillary gland, Membrane
# condition_notes: Not Active = under 50% inhibition at 10 µM; read-out: Ki
Would you mind telling me the reported log10 of Ki of each entry?
Could you please treat all values as log10 of Ki in nM?

Guide cases for log10 of Ki, answers given:
CC(C)N1CCN(c2ccc(OCC3COC(Cn4cncn4)(c4ccc(Cl)cc4Cl)O3)cc2)CC1 (configuration not stated) :: 3.73
COc1cc2nc(N3CCN(C(=O)C4COc5ccccc5O4)CC3)nc(N)c2cc1OC (configuration not stated) :: -0.20
CC/C(=C(\c1ccccc1)c1ccc(OCCN(C)C)cc1)c1ccccc1 :: 3.95
Nc1c2c(nc3ccccc13)CCCC2 :: 3.05
CN(C)CCCN1c2ccccc2Sc2ccccc21 :: 0.57

Record log10 of Ki per entry; entries follow.
1. CC(C)[C@H]1C(=O)N2CCC[C@H]2[C@]2(O)O[C@](NC(=O)[C@@H]3C=C4c5cccc6[nH]cc(c56)C[C@H]4N(C)C3)(C(C)C)C(=O)N12
2. CN1CCN(CCCN2c3ccccc3Sc3ccc(Cl)cc32)CC1

0.65
1.11

* * *

# assay: DRUGMATRIX: Serotonin (5-Hydroxytryptamine) 5-HT3 radioligand binding (ligand: [3H] GR-65630)
# Type: cell membranes, Membrane
# condition_notes: hek293; Not Active = under 50% inhibition at 10 µM
property_label: Ki

Guide cases for Ki, answers given:
CC1Cc2ccccc2N1NC(=O)c1ccc(Cl)c(S(N)(=O)=O)c1 (stereo not drawn) [INDAPAMIDE] :: Not Active
COCCc1ccc(OCC(O)CNC(C)C)cc1 (stereo not drawn) :: Not Active
O=C(CCCN1CC=C(n2c(=O)[nH]c3ccccc32)CC1)c1ccc(F)cc1 :: Not Active
NC[C@H]1CC[C@H](C(=O)O)CC1 :: Not Active
Nc1nc2c(ncn2COCCO)c(=O)[nH]1 :: Not Active
COc1ccc(C[C@H]2NC[C@H](O)[C@H]2OC(C)=O)cc1 :: Not Active
Cc1c(O)c(=O)ccn1C :: Not Active
CC(=O)O[C@@]12CO[C@@H]1C[C@H](O)[C@@]1(C)C(=O)[C@H](O)C3=C(C)[C@@H](OC(=O)[C@H](O)[C@@H](NC(=O)OC(C)(C)C)c4ccccc4)C[C@@](O)([C@@H](OC(=O)c4ccccc4)[C@H]21)C3(C)C.O.O.O :: Not Active

Record Ki per entry; entries follow.
1. Cc1c(C)c2c(c(C)c1O)CCC(C)(COc1ccc(CC3SC(=O)NC3=O)cc1)O2 (stereo not drawn)
2. OC(Cn1cncn1)(Cn1cncn1)c1ccc(F)cc1F
3. Nc1ncn([C@@H]2O[C@H](CO)[C@@H](O)[C@H]2O)c(=O)n1
4. Cc1onc(-c2ccccc2Cl)c1C(=O)N[C@@H]1C(=O)N2[C@@H]1SC(C)(C)[C@@H]2C(=O)O
5. Clc1cccc(Cl)c1NC1=NCCN1
6. CSc1ccc(/C=C2/C(C)=C(CC(=O)O)c3cc(F)ccc32)cc1 [SULINDAC SULFIDE]

1: Not Active; 2: Not Active; 3: Not Active; 4: Not Active; 5: Not Active; 6: Not Active

* * *

# assay: DRUGMATRIX: Imidazoline I2, Central radioligand binding (ligand: [3H] Idazoxan)
# Assay type: cell membranes, Rattus norvegicus, Wistar, Cerebral cortex, Membrane
# condition_notes: Not Active = under 50% inhibition at 10 µM; read-out: Ki
pKi: −log10 of the molar value.
Record Met whenever pKi is at 6 or higher; record Not met when lower.

Please review the entries below; each comes with its answer.
CN(C)CCCN1c2ccccc2Sc2ccc(Cl)cc21 :: Not met
Cc1ccc(/N=C/N(C)/C=N/c2ccc(C)cc2C)c(C)c1 :: Met

Continue with the next compound.
Is reported pKi greater than or equal to 6 here: O=C(CCCN1CC=C(n2c(=O)[nH]c3ccccc32)CC1)c1ccc(F)cc1
Not met

* * *

# target_entity: Alpha-1A adrenergic receptor (Rattus norvegicus, UniProt P43140)
# Sequence (P43140 whole entry): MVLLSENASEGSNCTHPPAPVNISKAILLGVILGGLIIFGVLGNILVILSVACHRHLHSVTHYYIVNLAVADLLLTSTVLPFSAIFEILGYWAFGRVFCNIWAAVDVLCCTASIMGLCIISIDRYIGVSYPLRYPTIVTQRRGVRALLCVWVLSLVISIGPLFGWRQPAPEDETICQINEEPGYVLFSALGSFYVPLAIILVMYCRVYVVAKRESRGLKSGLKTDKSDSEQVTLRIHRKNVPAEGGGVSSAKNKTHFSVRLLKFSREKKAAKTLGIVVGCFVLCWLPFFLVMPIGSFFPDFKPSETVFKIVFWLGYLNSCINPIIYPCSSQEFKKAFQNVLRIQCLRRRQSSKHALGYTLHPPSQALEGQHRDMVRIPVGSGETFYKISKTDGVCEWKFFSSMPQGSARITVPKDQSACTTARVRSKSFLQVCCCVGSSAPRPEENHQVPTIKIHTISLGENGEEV
# assay: DRUGMATRIX: Alpha-1A adrenergic receptor radioligand binding (ligand: prazosin)
# Assay type: cell membranes, Wistar, Submaxillary gland, Membrane
# condition_notes: Not Active = under 50% inhibition at 10 µM
property_label: IC50

Guide cases for IC50, answers given:
CN(C)C(=O)Oc1cc(OC(=O)N(C)C)cc(C(O)CNC(C)(C)C)c1 (centres undefined) :: Not Active
CC(C)(Oc1ccc(Cl)cc1)C(=O)O :: Not Active
OCCN(CCO)c1nc(N2CCCCC2)c2nc(N(CCO)CCO)nc(N3CCCCC3)c2n1 :: Not Active
CNCCc1ccccn1 :: Not Active
O=c1[nH]c(=O)n([C@H]2C[C@H](O)[C@@H](CO)O2)cc1I :: Not Active

Record IC50 per entry; entries follow.
1. CC[C@@H](CO)NC(=O)[C@@H]1C=C2c3cccc4[nH]cc(c34)C[C@H]2N(C)C1
2. CCCCc1nc(Cl)c(CO)n1Cc1ccc(-c2ccccc2-c2nnn[nH]2)cc1

Not Active
Not Active

Record IC50 per entry; entries follow.
1. OC(Cn1cncn1)(Cn1cncn1)c1ccc(F)cc1F
2. NC(=O)N1c2ccccc2CCc2ccccc21

Not Active
Not Active

* * *

Would you mind telling me the reported IC50 of each entry?
# assay: DRUGMATRIX: Sodium/nucleoside co-transporter radioligand binding (ligand: nitrobenzylthioinosine)
# Format: cell membranes, Cavia porcellus, Dunkin-Hartley, Cerebral cortex, Membrane
# condition_notes: Not Active = under 50% inhibition at 10 µM; read-out: IC50

Record IC50 per entry; entries follow.
1. CC(C)N1CCN(c2ccc(OCC3COC(Cn4cncn4)(c4ccc(Cl)cc4Cl)O3)cc2)CC1 (stereo not drawn)
2. OCCN(CCO)c1nc(N2CCCCC2)c2nc(N(CCO)CCO)nc(N3CCCCC3)c2n1
3. Cc1oncc1C(=O)Nc1ccc(C(F)(F)F)cc1 [LEFLUNOMIDE]

12.4 µM
0.083 µM
15.1 µM

* * *

# assay: DRUGMATRIX: Leukotriene, BLT (LTB4) radioligand binding (ligand: [3H]LTB4)
# Assay type: cell membranes, Membrane
# condition_notes: u-937; Not Active = under 50% inhibition at 10 µM
property_label: IC50

NS(=O)(=O)c1cc2c(cc1Cl)NC(C(Cl)Cl)NS2(=O)=O (stereo not drawn) [TRICHLORMETHIAZIDE] :: Not Active
CC[C@]1(O)C[C@H]2CN(CCc3c([nH]c4ccccc34)[C@@](C(=O)OC)(c3cc4c(cc3OC)N(C=O)[C@H]3[C@@](O)(C(=O)OC)[C@H](OC(C)=O)[C@]5(CC)C=CCN6CC[C@]43[C@@H]65)C2)C1 :: Not Active
Cc1ccc2cc3c(ccc4ccccc43)c3c2c1CC3 :: Not Active
